# EXPERIMENTAL_TARGET: T1, soluble human FcRn (human, UniProt P55899 24-297; P61769 21-119, biotinylated (Sulfo-NHS-LC-Biotin) in the ELISA; amine-coupled to CM5 chip in SPR)
# T1 construct: also called shFcRn; biotinylated shFcRn
# T1 sequence (P55899 24-297 limits assumed, chain 1 of 2): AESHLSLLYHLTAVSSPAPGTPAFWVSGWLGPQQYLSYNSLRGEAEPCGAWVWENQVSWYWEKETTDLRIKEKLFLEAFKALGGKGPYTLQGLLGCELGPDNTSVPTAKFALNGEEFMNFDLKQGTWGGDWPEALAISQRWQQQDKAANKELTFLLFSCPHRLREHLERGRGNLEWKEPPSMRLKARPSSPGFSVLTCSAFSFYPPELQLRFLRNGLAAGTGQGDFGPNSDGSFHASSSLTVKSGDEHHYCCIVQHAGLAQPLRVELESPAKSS
# T1 sequence (P61769 21-119 limits assumed, chain 2 of 2): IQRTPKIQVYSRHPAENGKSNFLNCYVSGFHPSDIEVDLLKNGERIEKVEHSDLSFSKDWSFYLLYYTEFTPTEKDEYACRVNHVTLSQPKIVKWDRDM
# ASSAY_TEXT: ELISA, competitor human IgG
pIC50: −log10 of the molar value. Bridge positions count the residues as written; N and C are the ends. Ends that are not written are not given here.
Measured pIC50 accompanies every entry in the list below.

// known answers, use as guide
[
  {
    "BINDER": "QRACTGHFGGLYPCNGP-NH2 (disulfide 4-14 (inferred)) [SEQ ID NO:26]",
    "READOUT_NAME": "pIC50",
    "RESULT_VALUE": 4.02
  },
  {
    "BINDER": "QRFCTGAFGGLYPCNGP-NH2 (disulfide 4-14 (inferred)) [SEQ ID NO:29]",
    "READOUT_NAME": "pIC50",
    "RESULT_VALUE": "< 3.90"
  }
]

Value of measured pIC50 for the entry QRFCTGHFGGLAPCNGP-NH2 (disulfide 4-14 (inferred)) [SEQ ID NO:34] : < 3.90

Value of measured pIC50 for the entry QRFCTGHAGGLYPCNGP-NH2 (disulfide 4-14 (inferred)) [SEQ ID NO:30] : < 3.90

Value of measured pIC50 for the entry QRFCTGHFGALYPCNGP-NH2 (disulfide 4-14 (inferred)) [SEQ ID NO:32] : < 3.90

Value of measured pIC50 for the entry QRFCTAHFGGLYPCNGP-NH2 (disulfide 4-14 (inferred)) [SEQ ID NO:28] : < 3.90
